Origin of the recorded values: patent US9345740B2

Would you mind telling me the reported IC50 of each entry?
target: XIAP BIR2-3 (His-BIR2-3 (125-356, C202A/C213G, XIAP)) (Homo sapiens (Human), UniProt P98170, C202A/C213G)
Sequence (P98170 whole entry C202A/C213G, looked up): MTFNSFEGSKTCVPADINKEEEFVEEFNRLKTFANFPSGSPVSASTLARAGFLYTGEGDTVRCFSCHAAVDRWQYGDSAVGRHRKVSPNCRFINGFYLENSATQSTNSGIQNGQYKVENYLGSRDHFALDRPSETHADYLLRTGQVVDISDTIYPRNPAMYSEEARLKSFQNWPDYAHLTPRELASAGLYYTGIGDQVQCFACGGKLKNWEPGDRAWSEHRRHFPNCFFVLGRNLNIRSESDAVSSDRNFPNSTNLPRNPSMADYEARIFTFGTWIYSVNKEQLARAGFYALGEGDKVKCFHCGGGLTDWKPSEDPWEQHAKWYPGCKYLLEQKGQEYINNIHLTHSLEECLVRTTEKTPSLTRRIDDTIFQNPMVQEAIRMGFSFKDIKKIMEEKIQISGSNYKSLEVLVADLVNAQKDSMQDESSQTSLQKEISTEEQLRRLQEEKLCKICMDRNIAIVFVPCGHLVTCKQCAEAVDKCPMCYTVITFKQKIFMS
One number for each entry, in nM.

Answered examples (5):
CC[C@H](NC)C(=O)N[C@@H](Cc1ccc(NC(=O)c2ccc(C(=O)N[C@H]3C[C@@H](C(=O)N[C@@H]4CCCc5ccccc54)N(C(=O)[C@@H](NC(=O)[C@H](C)NC)C(C)(C)C)C3)cc2)cc1)C(=O)N1C[Si](C)(C)C[C@H]1C(=O)N[C@@H]1CCCc2ccccc21 [Example 11]: 6
CN[C@@H](C)C(=O)N[C@@H](Cc1ccc(C(=O)N[C@H]2C[C@@H](C(=O)N[C@@H]3CCCc4ccccc43)N(C(=O)[C@@H](NC(=O)[C@H](C)NC)C(C)(C)C)C2)cc1)C(=O)N1C[Si](C)(C)C[C@H]1C(=O)N[C@@H]1CCCc2ccccc21 [Example 10]: 5
CN[C@@H](C)C(=O)N[C@@H](Cc1ccc(CCc2ccc(C(=O)N[C@H]3C[C@@H](C(=O)N[C@@H]4CCCc5ccccc54)N(C(=O)[C@@H](NC(=O)[C@H](C)NC)C(C)(C)C)C3)cc2)cc1)C(=O)N1C[Si](C)(C)C[C@H]1C(=O)N[C@@H]1CCCc2ccccc21 [Example 6]: 205
CN[C@@H](C)C(=O)NC(Cc1ccc(-c2ccc(C(=O)NC3C[C@@H](C(=O)NC4CCCc5ccccc54)N(C(=O)[C@@H](NC(=O)[C@H](C)NC)C(C)(C)C)C3)cc2)cc1)C(=O)N1C[Si](C)(C)C[C@H]1C(=O)NC1CCCc2ccccc21 (stereo partly shown) [Example 7]: 307
CN[C@@H](C)C(=O)N[C@H](C(=O)N1C[C@@H](NC(=O)c2ccc(CN(C(=O)[C@@H]3C[Si](C)(C)CN3C(=O)[C@@H](NC(=O)[C@H](C)NC)C(C)(C)C)[C@H](C)c3ccccc3F)cc2)C[C@H]1C(=O)N[C@@H]1CCCc2ccccc21)C(C)(C)C [Example 9]: 9

Go through the items and report each one's IC50.
1. CN[C@@H](C)C(=O)NC(Cc1ccc(NC(=O)c2ccc(CO[C@H]3C[C@@H](C(=O)NC4CCCc5ccccc54)N(C(=O)[C@@H](NC(=O)[C@H](C)NC)C(C)(C)C)C3)cc2)cc1)C(=O)N1C[Si](C)(C)C[C@H]1C(=O)NC1CCCc2ccccc21 (stereo partly shown) [Example 3]
2. CN[C@@H](C)C(=O)N[C@@H](Cc1ccc(C#CC(=O)N[C@H]2C[C@@H](C(=O)N[C@@H]3CCCc4ccccc43)N(C(=O)[C@@H](NC(=O)[C@H](C)NC)C(C)(C)C)C2)cc1)C(=O)N1C[Si](C)(C)C[C@H]1C(=O)N[C@@H]1CCCc2ccccc21 [Example 8]

Return:
5
4
